biological target: HLA-A*0206 (human); test: competition with 125I standard peptide for purified HLA; gel filtration; conditions: remark: other sources report otherwise
QUANTITY_KIND: IC50 (µM)

(P) FMLCAGLWV (modifications not checked) [Peptide 1418.22 … (HuK2.195.V9)]
(Q) LLSNDMCARV (modifications not checked) [Peptide 1418.53 … (HuK2.178.V10)]
Compare the recorded IC50 of P and Q ; state which is larger. // caller expects the label of the chosen entry
P
(P: 0.051 µM, Q: 0.01 µM)
